Molecular target: T1, His/Avi-CynoIL18BP (recombinant cynomolgus IL-18BP with His and Avi tags) (cynomolgus monkey)
T1 construct: also called cynomolgus IL-18BP-Avi-His
T1 chain: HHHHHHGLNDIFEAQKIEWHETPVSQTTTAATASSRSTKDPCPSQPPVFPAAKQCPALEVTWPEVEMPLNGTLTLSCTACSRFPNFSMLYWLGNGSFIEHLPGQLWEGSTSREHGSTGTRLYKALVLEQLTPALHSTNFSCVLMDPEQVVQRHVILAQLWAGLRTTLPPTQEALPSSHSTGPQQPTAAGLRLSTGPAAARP
Assay: SPR Biacore T200, IgG captured on Protein A/G
experimental-readout: pKd
Give bare numbers, as −log10 of the molar value.

# binder, experimental-readout, meas-value
data = [
    ("anti-IL-18BP antibody variant BP-04.29 (antibody, V domains shown) VH: QVQLVQSGAEVKKPGASVKVSCKASGYTFTDYDMHWVRQAPGQGLEWMGIISTYYGDVSYAQKFQGRVTMTRDKSTSTVYMELSSLRSEDTAVYYCARSGTYNYGTRESHALDYWGQGTLVTVSS VL: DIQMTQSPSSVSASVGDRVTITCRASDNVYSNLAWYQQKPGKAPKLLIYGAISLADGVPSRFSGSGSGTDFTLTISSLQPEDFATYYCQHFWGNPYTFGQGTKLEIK", "pKd", 7.49),
    ("anti-IL-18BP antibody variant BP-04.25 (antibody, V domains shown) VH: QVQLVQSGAEVKKPGASVKVSCKASGYTFTDYDMHWVRQAPGQGLEWMGIYSTYYGDVSYAQKFQGRVTMTRDKSTSTVYMELSSLRSEDTAVYYCARSGTYNYGTRESHALDYWGQGTLVTVSS VL: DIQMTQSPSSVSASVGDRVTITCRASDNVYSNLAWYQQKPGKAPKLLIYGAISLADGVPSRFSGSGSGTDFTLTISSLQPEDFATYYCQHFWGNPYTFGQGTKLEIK", "pKd", 7.00),
]

# input for lookup
### Prompt Entry anti-IL-18BP antibody variant BP-04.08 (antibody, V domains shown) VH: QVQLVQSGAEVKKPGASVKVSCKASGYTFTDYDMHWVRQAPGQGLEWMGIYSTYYGDVSYAQKKQGRVTMTRDKSTSTVYMELSSLRSEDTAVYYCARSGTYNYGTRESHALDYWGQGTLVTVSS VL: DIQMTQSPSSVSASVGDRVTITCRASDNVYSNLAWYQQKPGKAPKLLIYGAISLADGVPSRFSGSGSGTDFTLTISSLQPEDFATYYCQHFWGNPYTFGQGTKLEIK : reported pKd = ?
### Response 7.25
